B1: POU domain, class 2, transcription factor 1, residues 285 to 354; numbered along this chain, P14859 (parent)
chain: LEELEQFAKTFKQRRIKLGFTQGDVGLAMGKLYGNDFSQTTISRFEALNLSFKNMCKLKPLLEKWLNDAE

# Variants of: B1
# ASSAY_NOTES: abundance fitness (aPCA) (normalised: wild type 0, dead -1); higher = more abundant; growth selection in yeast, the domain comes from the species named
# EXPERIMENTAL_CONDITIONS: Homo sapiens
Listed next: entries and their corresponding abundance fitness.

The examples below pair each entry with its known result.
S51G 0.028
S51R -0.056
Q13L -0.005

stdin: Using the record for "D24P" , state its measured abundance fitness.
stdout: -0.846

stdin: Using the record for "M55F" , state its measured abundance fitness.
stdout: -0.107

stdin: Using the record for "F37M" , state its measured abundance fitness.
stdout: -0.011

stdin: Using the record for "G23P" , state its measured abundance fitness.
stdout: -0.11

stdin: Using the record for "M55E" , state its measured abundance fitness.
stdout: -0.488

stdin: Using the record for "Q6S" , state its measured abundance fitness.
stdout: -0.017

stdin: Using the record for "Q22D" , state its measured abundance fitness.
stdout: -0.035

stdin: Using the record for "G19M" , state its measured abundance fitness.
stdout: -0.471

stdin: Using the record for "P60N" , state its measured abundance fitness.
stdout: -0.094

stdin: Using the record for "A8L" , state its measured abundance fitness.
stdout: -0.252
